Molecular target: human Yes1 enzyme (Homo sapiens)
Construct: made in house
Sequence (P07947 whole entry): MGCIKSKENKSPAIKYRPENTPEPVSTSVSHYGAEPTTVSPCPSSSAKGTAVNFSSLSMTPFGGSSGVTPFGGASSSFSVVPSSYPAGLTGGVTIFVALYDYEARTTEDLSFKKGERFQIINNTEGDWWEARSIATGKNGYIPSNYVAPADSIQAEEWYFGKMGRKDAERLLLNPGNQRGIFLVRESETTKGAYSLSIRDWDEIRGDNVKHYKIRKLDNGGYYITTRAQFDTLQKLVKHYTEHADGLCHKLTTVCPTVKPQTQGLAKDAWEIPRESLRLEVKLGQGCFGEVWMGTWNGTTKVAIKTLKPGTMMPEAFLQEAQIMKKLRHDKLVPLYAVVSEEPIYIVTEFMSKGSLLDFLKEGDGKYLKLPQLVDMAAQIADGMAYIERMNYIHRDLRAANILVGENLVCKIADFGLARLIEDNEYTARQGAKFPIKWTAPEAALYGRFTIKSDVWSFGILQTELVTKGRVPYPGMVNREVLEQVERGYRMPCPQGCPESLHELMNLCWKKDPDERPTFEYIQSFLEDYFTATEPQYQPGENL
Experiment: Yes1 enzyme inhibitory activity (time-resolved fluorometry, biotinylated peptide phosphorylation)
Type: biochemical
Conditions: read-out: YES_IC50
RECORDED ENDPOINT: IC50 (nM)
Report the figure in nM without appending any unit label.

Below are worked cases with known answers.
Cc1cc(Oc2ccccc2F)ccc1-n1ncc(C(=O)c2cc3cc(F)c(N4CCOCC4)cc3[nH]2)c1N [Example 5-1-119]
1.8
Cc1cc(Oc2c(F)cccc2F)ncc1-n1ncc(C(=O)c2cc3cc(N4CCOCC4)c(Br)cc3[nH]2)c1N [Example 5-1-155]
1.6
COC(=O)[C@H](Cc1cnc[nH]1)NC(=O)Nc1cc2[nH]c(C(=O)c3cnn(-c4ccc(Oc5ccccc5F)cc4C)c3N)cc2cc1OCC(F)F [Example 5-1-246]
1.6

Prompt line: Please report the measured IC50 for Cc1cc(-n2ncc(C(=O)c3cc4cc(OC5CCN(C(C)C)CC5)c(N5CCC(N6CCOCC6)CC5)cc4[nH]3)c2N)c(F)cc1Oc1ccccc1F [Example 5-1-215] tested on human Yes1 enzyme (Homo sapiens).
Response line: 0.81

Prompt line: Please report the measured IC50 for COc1cccc(S(=O)(=O)Nc2cc3[nH]c(C(=O)c4cnn(-c5cnc(Oc6c(F)cccc6F)cc5C)c4N)cc3cc2OCC(F)F)c1 [Example 5-1-327] tested on human Yes1 enzyme (Homo sapiens).
Response line: 7.3

Prompt line: Please report the measured IC50 for Cc1ccccc1-c1cc2[nH]c(C(=O)c3cnn(-c4cnc(Oc5c(F)cccc5F)cc4C)c3N)cc2cc1OC1CCN(C2CCCC2)CC1 [Example 5-1-337] tested on human Yes1 enzyme (Homo sapiens).
Response line: 2.3
